# Tested on: PPARg:RXRa 90nM:30nM, anti-RXR (NR concentration 90 nM, RXRa partner concentration 30 nM)
# PROCEDURE_TEXT: PBM binding z-score (relative to random genomic background probes); higher = stronger binding; sequences stand for … in GC…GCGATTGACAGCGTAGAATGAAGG
This section presents sequences with their documented PBM binding z-score values.
# output: bare number, no unit

Here is how some sequences turned out for PBM binding z-score.
Give its PBM binding z-score value. Item: TCTTGTAGATCAAGCAGGTCAAGAAAGCCTGAGT
2.16

Give its PBM binding z-score value. Item: ACTAGCAGGCCAAGCTTGGGTCACTCAAACAAAG
-0.194

Give its PBM binding z-score value. Item: GCATATAGGTAATACAAGGTTAAAGTCCGATTGT
0.992

Further cases:
Give its PBM binding z-score value. Item: CCAGACAGGTGAGAAGGTAACTCGGCCTCGATTA
0.171

Give its PBM binding z-score value. Item: CCTTACGGGTCACGAGGGTATAGCACGACGAGCG
5.26

Give its PBM binding z-score value. Item: TCATATAGGTAATACAGGTGAATGTCGGCATCTA
3.28

Give its PBM binding z-score value. Item: ATCTCTAGGTAAGACACAGTTCAGTGAAGAACGC
1.72

Give its PBM binding z-score value. Item: TGAATGAGGTTAAAGATCAGGGTACGTGGCGTCG
6.42

Give its PBM binding z-score value. Item: CCTTACGGGTCACTCCAGGTTATTGCATCGGAGT
2.44

Give its PBM binding z-score value. Item: CCTCGGAGGACAGAAGCTCAGAGCTGTCCGCTTT
-1.69

Give its PBM binding z-score value. Item: AGAATGAGGTTAAGATCAGCGAAACAGAATACAT
1.74

Give its PBM binding z-score value. Item: TGTCAAAGTTCAAAGGTAACGTCAGTATCCACAC
7.79
